system: NCI-H226 lung; assay: NCI tumour cell line growth inhibition, 48 h
Where a SMILES comes first, the peptide text is derived from it. The star is where a group is joined. CH2Cl = ClC*
quantityName: TGI (µM)
Hi! Could you send only the number? It should be in µM, unit omitted.

Incoming: Field request: TGI | item: O=c1ccc(N=Nc2ccccc2)ccc1Cl
Outgoing: 66.1

Incoming: Requested read-out: TGI. Entry: CC(=O)NC(CC(C)C)C(=O)NC(Cc1ccccc1)C(=O)CCl (stereo not drawn) (Ac-Leu-Phe-CH2Cl; configuration not given here)
Outgoing: 39.1

###

system: HL-60(TB) leukemia; assay: NCI tumour cell line growth inhibition, 48 h
quantityName: TGI

Incoming: # get_value(readout='TGI', item= NC(=O)c1ncn2c1NCC1OC2C(O)C1O (stereo unspecified) )
Outgoing: > 100 µM

Incoming: I would be grateful if you could share the reported TGI for COc1c(-c2nc3nc(N4CCN(C)CC4)ccc3[nH]2)cc(OC)c2c1nc(CO)n2C .
Outgoing: > 100 µM

Incoming: Which value of TGI has been reported for CN=c1oc2ccccc2cc1C(N)=O in the records?
Outgoing: > 100 µM

Incoming: Dear colleague, I am looking for the recorded TGI of the following compound: COc1ccc2c(c1)CC[C@@H]1[C@@H]2CC[C@]2(C)C(c3ccsc3)=C(/C=C/C(=O)c3ccccc3)C[C@@H]12
Outgoing: > 100 µM

Incoming: Suppose we examine the compound Cc1noc(NS(=O)(=O)c2ccc(NC(=O)c3ccc4nc5ccccc5c(Nc5ccc(S(=O)(=O)Nc6onc(C)c6C)cc5)c4c3)cc2)c1C ; what TGI value has been reported?
Outgoing: > 100 µM

Incoming: Name the recorded TGI for Fc1cc(-c2cc(-c3ccccc3)n[nH]2)c(Cl)cc1Cl .
Outgoing: > 100 µM

Incoming: # lookup: TGI of COc1cc(/C=C/c2cccnc2)cc(OC)c1OC
Outgoing: > 100 µM

Incoming: I'd like to know its TGI. The compound in question is CCCCN(CCCC)CC(O)c1ccc(OCc2ccccc2)c2ccccc12 (stereo unspecified)
Outgoing: 8.25 µM

Incoming: Item Clc1cccc(Cl)c1C(Nc1nncs1)Nc1nncs1 has what recorded TGI?
Outgoing: 43.9 µM

Incoming: What value of TGI has been recorded for this entry: O=c1ccc(N=Nc2ccccc2)ccc1Cl
Outgoing: 87.1 µM

Incoming: # lookup: TGI of CC(C)(C)C1=NC(=S)SC2=NC(=O)C3(NN21)c1ccccc1-c1ccccc13
Outgoing: > 10 µM
